# Tested on: Escherichia coli
# protocol.details: Antibacterial activity against Escherichia coli ATCC 25922
# Assay type: functional
Label class 1 when MIC is strictly below 4 µg/mL; otherwise label class 0.

compound | target.desc | group.label
CNc1cc(F)cc2c1[nH]c1nc(CNC(=O)c3cocn3)nc(N3CCC(NC)C3)c12 (centres undefined) | Escherichia coli | class 0
CNc1cc(F)cc2c1[nH]c1nc(CNC(=O)c3ccco3)nc(N3CCC(N(C)C)C3)c12 (centres undefined) | Escherichia coli | class 1
CNc1cc(F)cc2c1[nH]c1nc(CNC(=O)c3cnco3)nc(N3CCC(N(C)C)C3)c12 (centres undefined) | Escherichia coli | class 1
CNc1cc(F)cc2c1[nH]c1nc(CNC(=O)c3ocnc3C)nc(N3CCC(N(C)C)C3)c12 (centres undefined) | Escherichia coli | class 1
CNc1cc(F)cc2c1[nH]c1nc(CNC(=O)c3cccc(C(=O)OC)n3)nc(N3CCC(CN)C3)c12 (centres undefined) | Escherichia coli | class 0

* * *

# Test system: Enterococcus faecalis
# protocol.details: Antibacterial activity against Enterococcus faecalis ATCC 29212
# Assay type: functional
Label true (1) when MIC is strictly below 0.1 µg/mL; otherwise label false (0).

compound | group.label
CNc1cc(F)cc2c1[nH]c1nc(CNC(=O)c3ocnc3C)nc(N3CCC(NC)C3)c12 (centres undefined) | false (0)
CNc1cc(F)cc2c1[nH]c1nc(CNC(=O)c3cccc(C(=O)OC)n3)nc(N3CCC(CN)C3)c12 (centres undefined) | false (0)
CNc1cc(F)cc2c1[nH]c1nc(CNC(=O)c3cnc(C)o3)nc(N3CCC(CN)C3)c12 (centres undefined) | false (0)
CNc1cc(F)cc2c1[nH]c1nc(CNC(=O)c3ocnc3C)nc(N3CCC(N(C)C)C3)c12 (centres undefined) | true (1)
CNc1cc(F)cc2c1[nH]c1nc(CNC(=O)c3cnc(C)o3)nc(N3CCC(N(C)C)C3)c12 (centres undefined) | true (1)
CNc1cc(F)cc2c1[nH]c1nc(CNC(=O)c3ccco3)nc(N3CCC(N(C)C)C3)c12 (centres undefined) | false (0)
CNc1cc(F)cc2c1[nH]c1nc(CN)nc(N3CCC(N)C3)c12 (centres undefined) | false (0)
CNc1cc(F)cc2c1[nH]c1nc(CNC(=O)c3cocn3)nc(N3CCC(NC)C3)c12 (centres undefined) | false (0)
CNc1cc(F)cc2c1[nH]c1nc(CNC(=O)c3cocn3)nc(N3CCC(N)C3)c12 (centres undefined) | true (1)

* * *

# Test system: Enterococcus faecalis
# protocol.details: Antibacterial activity against Enterococcus faecalis ATCC 29212
# Format: functional
metric.name: MIC (µg/mL)

compound | result
CNc1cc(F)cc2c1[nH]c1nc(CNC(=O)c3cnco3)nc(N3CCC(CN)C3)c12 (stereo not given) | 0.12
CNc1cc(F)cc2c1[nH]c1nc(CNC(=O)c3cnco3)nc(N3CCC(NC)C3)c12 (stereo not given) | 0.5
CNc1cc(F)cc2c1[nH]c1nc(CNC(=O)c3cccnn3)nc(N3CCC(N)C3)c12 (stereo not given) | 0.12
CNc1cc(F)cc2c1[nH]c1nc(CNC(=O)c3ocnc3C)nc(N3CCC(CN)C3)c12 (stereo not given) | 0.5
CNc1cc(F)cc2c1[nH]c1nc(CNC(=O)c3ccc4cc[nH]c4n3)nc(N3CCC(N(C)C)C3)c12 (stereo not given) | 0.5

* * *

# Test system: Mycolicibacterium smegmatis
# protocol.details: Antibacterial activity against Mycobacterium smegmatis ATCC 19420
# Assay type: functional
Overview of reported MIC across a group of molecules:
metric.name: MIC (µg/mL)

molecule | target.desc | result
CNc1cc(F)cc2c1[nH]c1nc(CNC(=O)c3cnc(C)o3)nc(N3CCC(CN)C3)c12 (stereo not given) | Mycolicibacterium smegmatis | 0.12
CNc1cc(F)cc2c1[nH]c1nc(CNC(=O)c3cnco3)nc(N3CCC(N(C)C)C3)c12 (stereo not given) | Mycolicibacterium smegmatis | 0.06
CNc1cc(F)cc2c1[nH]c1nc(CNC(=O)c3ccco3)nc(N3CCC(N(C)C)C3)c12 (stereo not given) | Mycolicibacterium smegmatis | 0.06
CNc1cc(F)cc2c1[nH]c1nc(CNC(=O)c3cnc(C)o3)nc(N3CCC(N(C)C)C3)c12 (stereo not given) | Mycolicibacterium smegmatis | 0.002
CNc1cc(F)cc2c1[nH]c1nc(CNC(=O)c3ocnc3C)nc(N3CCC(CN)C3)c12 (stereo not given) | Mycolicibacterium smegmatis | 0.03
